Assay: qHTS assay for re-activators of p53 using a Luc reporter: Hit Validation; note: nearly all actives have a fitted effect of over 75% in size; for activation: 0% is about no effect
Details: p53-responsive luciferase reporter cells, luminescence, H1299 line expressing heat-sensitive Ala138Val p53; series mostly up to 46.1 µM
Experimental: The p53 tumor suppressor plays a key role in suppression of tumorigenesis and in human carcinogenesis. It is frequently found inactivated in human cancers, mainly by point mutation. […] In order to find activators to reactivate this important protein, a cell-based screen for p53-dependent luciferase-reporter expression was developed. […] At assay temperate, 37 deg C, basal reporter expression is very low and after the addition of detection reagent, a luminescent read-out is carried out. […]
Results filed as inconclusive are left out. Active and inactive are the calls of the source. Calls come from the whole dose curve; as a rule, active = well fitted activation curve with a large enough effect; inconclusive = small, poorly fitted or top-dose-only effect; inactive = no such curve, though single readings can be large or run the other way.
Labels: 1 for active, -1 for inactive

{"Compound": "COc1ccccc1C(=O)CC(=O)c1ccccc1", "Cat": -1}
{"Compound": "Clc1ccc(Nc2nc(-c3cccs3)cs2)nc1", "Cat": 1}
{"Compound": "CCOc1ccc2c(c1)C(=NNC(=O)c1ccncc1)c1cc(OCC)ccc1-2", "Cat": -1}
{"Compound": "O=C(c1cccs1)c1coc2ccc(O)cc12", "Cat": 1}
{"Compound": "Cc1cc(C(=O)Nc2ccc(Br)cn2)sc1C", "Cat": 1}
{"Compound": "CN(C)c1ccc(N=Cc2nc(-c3ccccc3)oc2OC(=O)c2cccc(Cl)c2)cc1", "Cat": 1}
{"Compound": "Nc1nc(-c2ccc([N+](=O)[O-])cc2)cs1", "Cat": -1}
{"Compound": "COc1ccc(-n2cc(-c3ccccc3)[nH]c2=S)cc1", "Cat": 1}
{"Compound": "COc1ccc(NC(=O)/C(Cl)=C(/Cl)S(=O)(=O)Cc2ccc(C)cc2)cn1", "Cat": -1}
{"Compound": "COc1ccc(-c2coc3cc(O[C@@H]4O[C@H](CO)[C@@H](O)[C@H](O)[C@H]4O)ccc3c2=O)cc1", "Cat": 1}
{"Compound": "O=C(NCCN1CCCCC1)Nc1cccc(C(F)(F)F)c1", "Cat": -1}
{"Compound": "O=C(CC1CCCCC1)NCc1ccc(Cl)cc1", "Cat": 1}
{"Compound": "O=C(CSc1nnc(-c2ccc3c(c2)OCCO3)o1)N1CCCC1", "Cat": 1}
{"Compound": "Cc1c(C(=O)NC2=NCCS2)oc2ccccc12", "Cat": 1}
{"Compound": "O=C(COc1ccccc1Cl)Nc1ccc(Cl)cn1", "Cat": 1}
{"Compound": "O=C(Cn1cc(SCc2ccc(F)cc2)c2ccccc21)N1CCOCC1", "Cat": -1}
{"Compound": "Cc1cc(NC(=O)c2c(F)c(F)c(F)c(F)c2F)no1", "Cat": -1}
{"Compound": "O=C(Nc1ncc(Cc2ccccc2)s1)c1cccs1", "Cat": 1}
{"Compound": "C/C(=C\\C(=O)c1ccccc1)Nc1ccc2c(c1)OCO2", "Cat": 1}
{"Compound": "Cc1ccc(C(=O)Nc2ncc3c(n2)CC(c2ccco2)CC3=O)cc1 (centres undefined)", "Cat": -1}
{"Compound": "COc1ccc(-c2nnc(-c3ccc(Br)o3)o2)cc1OC", "Cat": -1}
{"Compound": "Cc1cs/c(=N/C(=S)Nc2ccccc2)n1C", "Cat": 1}
{"Compound": "O=C(CC(=O)c1ccccc1O)c1cccc(F)c1", "Cat": -1}
{"Compound": "O=C(CSc1nnc(-c2ccc(O)cc2)o1)Nc1ccc2c(c1)OCCO2", "Cat": 1}
